Recorded Inhibition for the following compounds
- Tested on: Plasmodium falciparum
- Measurement Description: GSK_TCMDC: Inhibition of Plasmodium falciparum 3D7 in whole red blood cells, using parasite LDH activity as an index of growth. Test compounds present at 2uM
- Assay type: functional
// units = %; emit number, no label

Some entries whose results are on file:
Compound: COc1ccccc1NC(=O)Nc1cccc(-c2ccc(-c3nc4cccc(C)c4[nH]3)s2)c1
Inhibition / %: 100

Compound: NC(=O)c1cccc(C(=O)Nc2cccc(-c3cccc(-c4nc5ccccc5[nH]4)c3)c2)c1
Inhibition / %: 100

Compound: Oc1ccc2[nH]cc(C3CCN(CCC(c4ccccc4)c4ccccc4)CC3)c2c1
Inhibition / %: 90

Compound: FC(F)(F)c1ccc2[nH]c(-c3ccc(-c4ccc(CNCc5cnn(-c6ccccc6)n5)cc4)s3)nc2c1.O=C(O)C(F)(F)F
Inhibition / %: 100

Compound: CCCCCn1c(Sc2ccc(C#N)c([N+](=O)[O-])c2)nnc1-c1cc(OC)cc(OC)c1
Inhibition / %: 93

Compound: COc1ccc(Nc2ncc3c(-c4cccc(NC(=O)Cc5ccc(O)cc5)c4)c[nH]c3n2)cc1OC
Inhibition / %: 100

Compound: CCC1=C(CC2NCCc3cc(OC)c(OC)cc32)CC2c3cc(OC)c(OC)cc3CCN2C1 (stereo not drawn) [DIHYDROEMETINE]
Inhibition / %: 100

Compound: Br.NC1=NC2(CCCCC2)N(OCCCCCCC2CCCCC2)C(N)=N1
Inhibition / %: 97

Compound: O=C(Nc1cccc(-c2cc(-c3c(Cl)cccc3Cl)no2)c1)c1cnc2ccccc2c1
Inhibition / %: 87

Compound: O=C(Nc1cccc(CN2CCCN(Cc3cccnc3)CC2)c1)c1cc2ccccc2s1.O=C(O)C(F)(F)F
Inhibition / %: 92

Problem: Enter reported Inhibition observed with Plasmodium falciparum for `Cc1ccc(-c2nc(NC(=O)Nc3ccc(C(F)(F)F)cc3)sc2C)cc1Cl`
Solution: 99

Problem: Enter reported Inhibition observed with Plasmodium falciparum for `O=C(O)C(F)(F)F.OCC1CCN(Cc2ccc(-c3ccc(-c4nc5ccccc5[nH]4)cc3)cc2)CC1`
Solution: 100

Problem: Enter reported Inhibition observed with Plasmodium falciparum for `CC(C)c1nc(N2CCN(C(=S)NCc3ccccc3)CC2)c(C#N)c2c1COC(C)(C)C2`
Solution: 99

Problem: Enter reported Inhibition observed with Plasmodium falciparum for `Cc1cc(N2CCCN(C)CC2)nc(Nc2ccc(Br)cc2)n1`
Solution: 94

Problem: Enter reported Inhibition observed with Plasmodium falciparum for `COCCOc1cc(C)c(C2CCN(CCCCNC(=O)c3ccc(NC(=O)c4ccc(Cl)cc4)cc3)CC2)cc1C`
Solution: 88

Problem: Enter reported Inhibition observed with Plasmodium falciparum for `CC(=O)Nc1ccc(OCCCN(Cc2ccccc2C(F)(F)F)c2ccc(C(F)(F)F)c(C#N)c2)c(Cl)c1`
Solution: 85

Problem: Enter reported Inhibition observed with Plasmodium falciparum for COc1ccc2ccc(F)c(CC(=O)N3CCOC(CNCc4cccc(-c5ccc(F)cc5)n4)C3)c2n1 (stereo not drawn)
Solution: 92

Problem: Enter reported Inhibition observed with Plasmodium falciparum for `Cc1[nH]c(C)c(-c2ccc(-c3ccc(OC(F)(F)F)cc3)nc2)c(=O)c1Cl`
Solution: 95
